# assayed_target: recombinant human GST-Syk (Homo sapiens, UniProt P43405)
# Construct: purchased Carna Biosciences 08-176
# experiment_notes: Homogeneous Time-Resolved Fluorescence (HTRF) assay for the recombinant human Syk enzyme
# Type: biochemical
# applied_conditions: recombinant human GST-Syk 5 pM, ATP 25 μM, 10-dose titration 10 μM to 0.508 nM; read-out: rhSYK Activity IC50
Hi there, I'd appreciate the recorded log10 IC50 for every entry that follows.
Remember, log10 of IC50, in nM.

| molecule | recorded_endpoint | reading |
| --- | --- | --- |
| Cc1cc(Nc2cc(C(F)(F)F)ccn2)nc(-c2cn(C(C)C(=O)N3CCc4ccccc4C3)nn2)c1 (stereo not shown) | log10 IC50 | 2.81 |

For every item in the list below, what is its measured log10 IC50?
1. Cc1cc(Nc2nccc(C(F)F)n2)cc(-c2cn(CC3CNCCO3)nn2)c1 (single isomer, unassigned) [Example 22.1]
2. COCc1cc(Nc2nccc(C(F)(F)F)n2)cc(-c2cn(C[C@H](O)CO)nn2)c1
3. Cc1cc(Nc2cc(C(F)(F)F)ccn2)nc(-c2cn(-c3ccc(C(N)=O)cc3)nn2)c1
4. Cc1cc(Nc2nccc(C(F)F)n2)cc(-c2cn(CC3OC(=O)NC3C)nn2)c1 (single isomer, unassigned) [Example 7.42]
5. Cc1cc(Nc2cc(C(F)(F)F)ccn2)nc(-c2cn(C3CCCCC3O)nn2)c1 (racemic)
6. Cc1cc(Nc2cc(C(F)F)ccn2)nc(-c2cn(CC3OC(=O)NC3C)nn2)c1 (single isomer, unassigned) [Example 7.15]

1: 1.16; 2: 1.81; 3: 1.19; 4: 1.03; 5: 0.60; 6: 0.63

* * *

# assayed_target: recombinant human GST-Syk (Homo sapiens, UniProt P43405)
# Construct: purchased Carna Biosciences 08-176
# experiment_notes: Homogeneous Time-Resolved Fluorescence (HTRF) assay for the recombinant human Syk enzyme
# Assay type: biochemical
# applied_conditions: recombinant human GST-Syk 5 pM, ATP 25 μM, 10-dose titration 10 μM to 0.508 nM; read-out: rhSYK Activity IC50
# Procedure: Syk inhibition may be determined using the following assay protocol: Homogeneous Time-Resolved Fluorescence (HTRF) assay for the recombinant human Syk enzyme: A recombinant GST-hSyk fusion protein was used to measure potency of compounds to inhibit human Syk activity. […] Final volume of the reaction was 10 μL. […] The resulting HTRF signal was measured after 30 minutes on an EnVision (Perkin-Elmer) reader using a time-resolved fluorescence protocol.
recorded_endpoint: pIC50
Answers are plain numbers, as −log10 of the molar value.

Example cases with answers are listed next.
| molecule | pIC50 |
| --- | --- |
| Cc1cc(Nc2nccc(C(F)(F)F)n2)cc(-c2cn(C(C)C(O)CC#N)nn2)c1 (single isomer, unassigned) [Example 4.9] | 7.60 |
| Cc1cc(Nc2ncc(F)c(C(F)F)n2)cc(-c2cn(CC3OC(=O)NC3C)nn2)c1 (single isomer, unassigned) [Example 7.39] | 7.91 |
| Cc1cc(Nc2cc(C(F)(F)F)ccn2)nc(-c2cn(CCS(C)(=O)=O)nn2)c1 [Example 5.96] | 7.33 |
| Cc1cc(Nc2cc(C(F)(F)F)ccn2)nc(-c2cn(C[C@@H](C)CO)nn2)c1 [Example 5.81] | 8.16 |
| Cc1cc(Nc2cc(C(F)(F)F)ccn2)nc(-c2cn(C(C)C(=O)N[C@@H](CO)Cc3ccccc3)nn2)c1 (some centres unmarked) [Example 1.27] | 6.99 |

// for each molecule in input: emit pIC50
1. Cc1cc(Nc2nccc(C(F)F)n2)cc(-c2cn(Cc3ccc(=O)[nH]c3)nn2)c1 [Example 33]
2. Cc1cc(Nc2cc(C(F)(F)F)ccn2)nc(-c2cn(C(C)C(=O)N[C@H]3C[C@@H]3c3ccccc3)nn2)c1 (some centres unmarked) [Example 1.40]
3. Cc1cc(Nc2cc(C)c(F)cn2)nc(-c2cn(CC(C)(O)C(C)(C)O)nn2)c1 (centres unmarked) [Example 21.22]
4. Cc1cc(Nc2nccc(C(F)(F)F)n2)cc(-c2cn(Cc3noc(C)n3)nn2)c1 [Example 5.69]
5. Cc1cc(Nc2ncc(F)c(C(F)F)n2)cc(-c2cn(CC3OC(=O)NC34CC4)nn2)c1 (single isomer, unassigned) [Example 7.34]
6. Cc1cc(Nc2cc(C(F)F)ccn2)nc(-c2cn(C(C)C(C)(O)CO)nn2)c1 (single isomer, unassigned) [Example 30.5]
7. Cc1cc(Nc2ncc(F)c(C(F)F)n2)cc(-c2cn(CC3OC(=O)NC3C)nn2)c1 (single isomer, unassigned) [Example 7.40]
8. Cc1cc(Nc2cc(C(F)(F)F)ccn2)nc(-c2cn(C[C@@H](O)CO)nn2)c1 [Example 5.19]

1: 8.43; 2: 6.93; 3: 7.07; 4: 7.24; 5: 8.00; 6: 8.57; 7: 7.59; 8: 8.40

Please look at the items below and tell me pIC50 for each one, in order.
1. Cc1cc(Nc2nccc(C(F)F)n2)cc(-c2cn(CC3OC(=O)NC3C)nn2)c1 (single isomer, unassigned) [Example 7.41]
2. Cc1cc(Nc2nccc(C(F)(F)F)n2)cc(-c2cn(CC3(O)CCC(C(=O)O)C(C)(C)C3)nn2)c1 (single isomer, unassigned) [Example 3.2]
3. Cc1cc(Nc2cc(C3CCC3)ccn2)nc(-c2cn(C(C)c3ccc(C(=O)O)cc3)nn2)c1 (centres unmarked) [Example 2.10]
4. Cc1cc(Nc2cc(C(F)(F)F)ccn2)nc(-c2cn(CCc3cn[nH]c3)nn2)c1 [Example 5.105]
5. Cc1cc(Nc2nccc(C(F)(F)F)n2)cc(-c2cn(CC(=O)N3[C@H](C)COC[C@@H]3C)nn2)c1 [Example 5.65]
6. Cc1cc(Nc2cc(C(F)(F)F)ccn2)nc(-c2cn(CC(O)CO)nn2)c1 (racemic) [Example 5.95]
7. Cc1cc(Nc2cc(C(F)(F)F)ccn2)nc(-c2cn(CC3(O)CCOC3)nn2)c1 (single isomer, unassigned) [Example 5.11]

1: 7.89; 2: 7.33; 3: 8.43; 4: 8.68; 5: 6.91; 6: 8.10; 7: 7.66

List reported pIC50 for each of these molecules:
1. Cc1cc(Nc2cc(C(F)F)ccn2)nc(-c2cn(C(C)C(C)(O)CO)nn2)c1 (single isomer, unassigned) [Example 30.8]
2. Cc1cc(Nc2nccc(C(F)(F)F)n2)cc(-n2cc(CCC(=O)O)nn2)c1 [Example 15.14]
3. Cc1cc(Nc2cc(C(F)(F)F)ccn2)nc(-c2cn(C3CS(=O)(=O)CC3O)nn2)c1 (centres unmarked) [Example 5.90]
4. Cc1cc(Nc2nccc(C(F)(F)F)n2)cc(-c2cn(CC(C)(O)C(C)(C)O)nn2)c1 (centres unmarked) [Example 21.19]
5. Cc1cc(Nc2cc(C(F)(F)F)ccn2)nc(-c2cn(C3CCCCC(O)C3O)nn2)c1 (single isomer, unassigned) [Example 10.3]
6. Cc1cc(Nc2cc(C(F)(F)F)ccn2)nc(-c2cn(C(C(=O)O)c3ccccc3)nn2)c1 (centres unmarked) [Example 3.11]
7. Cc1cc(Nc2nccc(C(F)(F)F)n2)cc(-c2nnc(CCC(=O)O)[nH]2)c1 [Example 20.1]
8. Cc1cc(Nc2nccc(C(F)(F)F)n2)cc(-c2cn(CCC(N)=O)nn2)c1 [Example 5.75]

1. 8.92
2. 7.10
3. 7.94
4. 7.53
5. 9.00
6. 8.29
7. 8.11
8. 7.50

What does the data say about its pIC50? Entry: Cc1cc(Nc2cc(C(F)(F)F)ccn2)nc(-c2cn(CC(C)(O)CO)nn2)c1 (centres unmarked) [Example 10.15]
8.14

* * *

# assayed_target: recombinant human GST-Syk (Homo sapiens)
# Construct: purchased Carna Biosciences 08-176
# experiment_notes: Homogeneous Time-Resolved Fluorescence (HTRF) assay for the recombinant human Syk enzyme
# Format: biochemical
# applied_conditions: recombinant human GST-Syk 5 pM, ATP 25 μM, 10-dose titration 10 μM to 0.508 nM; read-out: rhSYK Activity IC50
# Description: Syk inhibition may be determined using the following assay protocol: Homogeneous Time-Resolved Fluorescence (HTRF) assay for the recombinant human Syk enzyme: A recombinant GST-hSyk fusion protein was used to measure potency of compounds to inhibit human Syk activity. […] Final volume of the reaction was 10 μL. […] The resulting HTRF signal was measured after 30 minutes on an EnVision (Perkin-Elmer) reader using a time-resolved fluorescence protocol.
Field: IC50. Provide a value for each of the compounds that follow.
Answers are plain numbers, in nM.

Sample records with IC50:
| compound | assayed_target | u | IC50 |
| --- | --- | --- | --- |
| COc1ccc2[nH]c3c(c2c1)CCN(C(=O)C(C)n1cc(-c2cc(C)cc(Nc4cc(C(F)(F)F)ccn4)n2)nn1)C3 (centres unmarked) | recombinant human GST-Syk (Homo sapiens) | nM | 257 |
| Cc1cc(Nc2nccc(C(F)(F)F)n2)cc(-c2cn(Cc3ccc(CC(=O)O)cc3)nn2)c1 | recombinant human GST-Syk (Homo sapiens) | nM | 4.4 |
| Cc1cc(Nc2nccc(C)n2)cc(-c2cn(C3CCCCC3(C)O)nn2)c1 (single isomer, unassigned) [Example 7.27] | recombinant human GST-Syk (Homo sapiens) | nM | 90.4 |
| Cc1cc(Nc2cc(C(F)F)ccn2)nc(-c2cn(CC(C)(O)CO)nn2)c1 (centres unmarked) [Example 21.39] | recombinant human GST-Syk (Homo sapiens) | nM | 1.8 |
| Cc1cc(Nc2cc(C(F)F)ccn2)nc(-c2cn(CC3CNC(=O)C3)nn2)c1 (single isomer, unassigned) [Example 24.1] | recombinant human GST-Syk (Homo sapiens) | nM | 12.3 |
| Cc1cc(Nc2cc(C(F)(F)F)ccn2)nc(-c2cn(C[C@H]3CCC(=O)N3)nn2)c1 | recombinant human GST-Syk (Homo sapiens) | nM | 129 |
| Cc1cc(Nc2cc(C(F)F)ccn2)nc(-c2cn(CC3CNC(=O)C3)nn2)c1 (single isomer, unassigned) [Example 24.2] | recombinant human GST-Syk (Homo sapiens) | nM | 8.6 |
| Cc1cc(Nc2ncc(F)c(C(F)F)n2)cc(-c2cn(C3CCCCC3(C)O)nn2)c1 (single isomer, unassigned) [Example 7.25] | recombinant human GST-Syk (Homo sapiens) | nM | 38.2 |
| Cc1cc(Nc2cc(C(F)(F)F)ccn2)nc(-c2cn(Cc3ccc(C(=O)O)cc3)nn2)c1 | recombinant human GST-Syk (Homo sapiens) | nM | 3.3 |
| Cc1cc(Nc2nccc(C(F)F)n2)cc(-c2cn(C(C)C(C)(O)CO)nn2)c1 (single isomer, unassigned) [Example 30.1] | recombinant human GST-Syk (Homo sapiens) | nM | 12.4 |

// each compound listed below needs its IC50
1. Cc1cc(Nc2cc(C(F)(F)F)ccn2)nc(-c2cn(C3CN(C(=O)C(C)O)CC3O)nn2)c1 (single isomer, unassigned) [Example 13.3]
2. Cc1cc(Nc2cc(C(F)(F)F)ccn2)nc(-c2cn(CC(C)(O)C(N)=O)nn2)c1 (centres unmarked)
3. Cc1cc(Nc2nccc(C(F)(F)F)n2)cc(-n2ccnn2)c1
4. Cc1cc(Nc2nccc(C(F)(F)F)n2)cc(-c2cn([C@@H]3CCC[C@H](O)C3)nn2)c1 (racemic)

1. 10.5
2. 4.9
3. 102
4. 55.4

Hey, just so you know, these numbers are from patent US9586931B2.
